- target-system: hEP3A/Gqi5 (Homo sapiens)
- Sequence (P43115 whole entry): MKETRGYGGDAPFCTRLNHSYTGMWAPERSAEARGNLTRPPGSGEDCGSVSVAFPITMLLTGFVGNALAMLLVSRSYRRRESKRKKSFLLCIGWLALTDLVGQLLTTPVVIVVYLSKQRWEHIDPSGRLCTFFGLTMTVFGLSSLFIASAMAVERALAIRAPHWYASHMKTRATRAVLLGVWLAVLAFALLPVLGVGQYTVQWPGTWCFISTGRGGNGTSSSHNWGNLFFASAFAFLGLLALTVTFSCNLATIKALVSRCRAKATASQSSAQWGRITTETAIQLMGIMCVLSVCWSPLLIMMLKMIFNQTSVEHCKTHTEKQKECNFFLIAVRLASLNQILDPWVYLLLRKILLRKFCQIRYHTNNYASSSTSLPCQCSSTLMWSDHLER
- experimental-details: FLIPR calcium signal, HEK-293(EBNA) cells expressing hEP3A/Gqi5
- protocol-conditions: recombinant human EP3A/Gqi5, HEK-293(EBNA), read-out: FUNCTIONAL DATA EC50 HEP3A
metric-name: EC50 (nM)

C=C[C@@H]1CC(O)[C@H](C/C=C\CCCC(=O)OC)[C@H]1/C=C/[C@@H](O)CCc1cc(Br)c(C)s1 (single isomer, unassigned) [drawing 49] | 6010
C=C[C@@H]1CC(O)[C@H](C/C=C\CCCC(=O)O)[C@H]1/C=C/[C@@H](O)CCc1cc(Br)c(C)s1 (single isomer, unassigned) [drawing 48] | 554
C=C[C@@H]1CC(O)[C@H](C/C=C\CCCC(=O)O)[C@H]1/C=C/[C@@H](O)CCc1cc(Br)c(C)s1 (single isomer, unassigned) [drawing 47] | 304

----------
- target-system: hTP (Homo sapiens, UniProt P21731)
- Sequence (P21731 whole entry): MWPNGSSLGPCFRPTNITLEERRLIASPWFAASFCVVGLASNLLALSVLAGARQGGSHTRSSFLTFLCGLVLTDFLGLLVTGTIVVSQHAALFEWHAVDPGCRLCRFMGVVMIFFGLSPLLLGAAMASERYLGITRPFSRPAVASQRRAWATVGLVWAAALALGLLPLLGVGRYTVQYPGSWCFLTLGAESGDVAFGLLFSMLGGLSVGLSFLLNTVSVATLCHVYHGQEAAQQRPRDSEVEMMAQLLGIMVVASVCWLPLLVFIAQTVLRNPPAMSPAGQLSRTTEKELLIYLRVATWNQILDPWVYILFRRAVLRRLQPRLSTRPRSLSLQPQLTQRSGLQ
- experimental-details: FLIPR calcium signal, HEK-293(EBNA) cells expressing hTP
- protocol-conditions: recombinant human TP receptor, read-out: FUNCTIONAL DATA EC50 HTP
metric-name: EC50 (µM)

C=C[C@@H]1CC(O)[C@H](C/C=C\CCCC(=O)OC)[C@H]1/C=C/[C@@H](O)CCc1cc(Br)c(C)s1 (single isomer, unassigned) [drawing 49] | 1.81
C=C[C@@H]1CC(O)[C@H](C/C=C\CCCC(=O)O)[C@H]1/C=C/[C@@H](O)CCc1cc(Br)c(C)s1 (single isomer, unassigned) [drawing 47] | 0.243

----------
Each entry below carries its reported EC50.
- target-system: UniProt:P43088
- Sequence (P43088 whole entry): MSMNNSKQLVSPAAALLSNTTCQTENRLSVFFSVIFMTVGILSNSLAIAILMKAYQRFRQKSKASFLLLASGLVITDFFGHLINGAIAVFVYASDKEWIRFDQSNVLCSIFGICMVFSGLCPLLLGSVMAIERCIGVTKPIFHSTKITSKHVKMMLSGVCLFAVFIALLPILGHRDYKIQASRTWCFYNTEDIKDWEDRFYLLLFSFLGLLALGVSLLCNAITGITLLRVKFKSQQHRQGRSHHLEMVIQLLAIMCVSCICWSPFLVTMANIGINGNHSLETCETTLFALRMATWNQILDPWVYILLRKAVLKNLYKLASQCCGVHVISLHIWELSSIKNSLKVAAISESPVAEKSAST
- experimental-details: FLIPR calcium signal, HEK-293(EBNA) cells expressing hFP
- protocol-conditions: recombinant human FP receptor, read-out: FUNCTIONAL DATA EC50 HFP
metric-name: EC50 (nM)

C=C[C@@H]1CC(O)[C@H](C/C=C\CCCC(=O)O)[C@H]1/C=C/[C@@H](O)CCc1cc(Br)c(C)s1 (single isomer, unassigned) [drawing 48] | 1530
C=C[C@@H]1CC(O)[C@H](C/C=C\CCCC(=O)OC)[C@H]1/C=C/[C@@H](O)CCc1cc(Br)c(C)s1 (single isomer, unassigned) [drawing 49] | 742
Cc1sc(CC[C@H](O)/C=C/[C@H]2[C@H](C)CC(O)[C@@H]2C/C=C\CCCC(=O)O)cc1Br (single isomer, unassigned) | 43
C=C[C@@H]1CC(O)[C@H](C/C=C\CCCC(=O)O)[C@H]1/C=C/[C@@H](O)CCc1cc(Br)c(C)s1 (single isomer, unassigned) [drawing 47] | 61
